# System: ES-2 (ovarian adenocarcinoma)
# ASSAY INFO: SRB (sulforhodamine B) viability assay, ES-2
# Type: cell-based, human
# EXPERIMENTAL PARAMETERS: normoxia, read-out: IC50 ± SD, ES-2 (Ovarian), Normoxia
Give measured IC50 for each item. Keep answers brief.
Output spec: scalar in µM, unitless text.

I'd like to know its IC50. The molecule in question is N.N.[Cl][Pt][Cl] [Cisplatin, cis-diamminodichloroplatinum, reference compound] 9.85

And the next one, COC(=O)c1snc(C)c1[N+](=O)[O-].COC(=O)c1snc(C)c1[N+](=O)[O-].[Cl][Pt][Cl] [C4] ? 3.89

And the next one, Cc1nscc1[N+](=O)[O-].Cc1nscc1[N+](=O)[O-].[Cl][Pt][Cl] [C2] ? 2.14

And the next one, COC(=O)c1snc(C)c1[N+](=O)[O-].Cc1nscc1[N+](=O)[O-].[Cl][Pt][Cl] [C3] ? 3.9
